Each recorded value in this set is attributed to patent US10752587B2.

biological target: glutathione-S-transferase (GST) tagged LXRalpha LBD (ligand binding domain) (Homo sapiens, UniProt Q13133); construct: purchased Invitrogen pv4655; test: LanthaScreen TR-FRET Liver X Receptor Coactivator Assay, co-activator recruitment to LXRalpha LBD; assay type: biochemical; conditions: efficacy at max dose, in relation to reference dual agonist T0901317; read-out: LXR alpha Activity @ max dose (%)
Sequence (Q13133 209-447 limits assumed): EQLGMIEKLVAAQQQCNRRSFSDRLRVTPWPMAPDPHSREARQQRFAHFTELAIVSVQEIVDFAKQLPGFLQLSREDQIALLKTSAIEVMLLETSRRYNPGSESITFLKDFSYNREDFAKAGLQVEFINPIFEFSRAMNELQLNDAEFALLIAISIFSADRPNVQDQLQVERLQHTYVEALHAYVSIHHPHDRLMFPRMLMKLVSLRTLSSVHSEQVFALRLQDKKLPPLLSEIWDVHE
endpoint label: Emax (%)
Numeric answer only, unit % assumed.

**Query** Value lookup for Emax; key = CNC(=O)c1ccc(N2CCC(CC3CCN(C(=O)[C@](O)(c4cc(F)cc(OC)c4)C(F)(F)F)CC3)CC2)nc1Cl
**Result** 22

**Query** Please look up its Emax: O=C(c1ccc(N2CCC(CC3CCN(C(=O)[C@](O)(c4ccccc4)C(F)(F)F)CC3)CC2)cc1Cl)N1CC(F)(F)C1
**Result** 37

**Query** # lookup: Emax of COc1cccc([C@@](O)(C(=O)N2CCC(CC3CCN(c4ccc(C(=O)N(C)C)cc4)CC3)CC2)C(F)F)c1
**Result** 0

**Query** Item CN(C)C(=O)c1ccc(N2CCC(CC3CCN(C(=O)C(F)(F)c4ccccc4)CC3)CC2)nc1Cl has what recorded Emax?
**Result** 32
